System: Saccharomyces cerevisiae
Assay: protein stability index of tFT-peptide fusion (C-terminal peptide) (PSI (0-1 scale)); higher = more stable (slower turnover)
Conditions: genetic background: wild type; temperature: 30 C
Binning scheme for protein stability index: LOW: < 0.6; MEDIUM: ≥ 0.6 and < 0.7; HIGH: ≥ 0.7

1) WYVRVYVLSVES    LOW
2) HKGKELTNNAML    MEDIUM
3) VVFFFKFFLLRL    LOW
4) FHRSVVRLWLRN    LOW
5) WGFLCVALGRWV    MEDIUM
6) LFIVSFSPGFPF    MEDIUM
7) EGDIFSGFPSFQ    HIGH
8) RASLTPSDHLFF    HIGH
9) CVSYLVIFDRRY    MEDIUM
10) PPFPPAPPRGPA    MEDIUM
11) LGDGAVVAEESG    MEDIUM
12) AEVRGTVGRLVG    MEDIUM
13) LPLWQHPTKPVH    MEDIUM
14) VMGAGGGSRSRV    MEDIUM
15) VSHGPAIHALSI    MEDIUM
16) ALRGRTTPPSHT    HIGH
17) HTPPLPPPPDPT    HIGH
18) CQWGGWGVGVGG    HIGH
19) LRGIVSVWILRA    LOW
20) VAAFGGGATNGV    HIGH
21) SPPCPLPLPPPP    MEDIUM
22) AFAFSVLTGWGV    MEDIUM
23) SSGSLLLPRFLT    LOW
24) DSSLSRPGRLLP    HIGH
25) DGAAGTGGAMGF    MEDIUM
26) VGHVVVRLWPHE    MEDIUM
27) WVVWVLVGGFGG    LOW
28) RAGCWFAGYSRV    HIGH
29) CRGGWKCGQEKG    MEDIUM
30) PFPPPPSPPLYP    HIGH
31) YIFLLRFFFFFS    LOW

###

System: Saccharomyces cerevisiae
Experiment: protein stability index of tFT-peptide fusion (C-terminal peptide) (PSI (0-1 scale)); higher = more stable (slower turnover)
Details: genetic background: wild type; temperature: 30 C
metric: protein stability index

1) LAALVGGNRGRG    0.704
2) IAGRPSSGFPLL    0.686
3) ESHSIIRRRSWW    0.78
4) NENQIKVIMLLV    0.266
5) VHHHQTTCHRHR    0.682
6) GRGRDDKTYKKT    0.669
7) FRVILISACESV    0.464
8) RGSYLAFRVYGP    0.648
9) RPDSGFPLRGSS    0.75
10) VRERWNTKKKKK    0.64
11) SGSTRTEDDGAR    0.652
12) VLGARWHWIYIA    0.111
13) PSRSPPPLPAPH    0.69
14) WFSVFTMSILSR    0.435
15) YSAPFRIPLSLR    0.631
16) GGWGGRSGTEGE    0.686
17) LSPALSFVLTIW    0.497
18) VFAPWLFLFGFF    0.521
19) VFRLFFLLVWLV    0.123

###

Some sequences, each annotated with its measured protein stability index.
Tested on: Saccharomyces cerevisiae
Assay: protein stability index of tFT-peptide fusion (C-terminal peptide) (PSI (0-1 scale)); higher = more stable (slower turnover)
Details: genetic background: wild type; temperature: 30 C
metric: protein stability index

1) FMFFMGLFVGGW    0.54
2) GVLHPPARPPPL    0.654
3) PPPCRSLPLLPP    0.655
4) SLPRYPRRASHS    0.757
5) RGGGGGGGAAGS    0.657
6) LGFLLSLVCLLG    0.532
7) KKRMDKIKDKKI    0.713
8) PSPAAPSPPCLP    0.64
9) RSHPPPPVSRSP    0.651
10) LPPPPLPPPVFP    0.74
11) YRRDVGAARVLP    0.67
12) VFCSCTARPPLR    0.717
13) YFLPESKIGRSG    0.705
14) RQIPAQAVKHVL    0.588
15) RAMWAGKGGDGW    0.738
16) VCLWVEVLIVLG    0.209
17) LWKLLNTVKNAA    0.62
18) TGRWRWMRDLLS    0.63
19) WAERESLNGLSA    0.718
20) VSGGGAPRSVWR    0.706
21) TALGVCPRVMQN    0.718
22) TPPLPLPSPPCP    0.725
23) GEDADLVPILLG    0.707
24) PPHPVTLSPART    0.614
25) GVVWMSCGGWGG    0.764
26) ITSLQAPPEYLH    0.692
27) GGLICRHGVGRG    0.705
28) GIGGNWAVSRNC    0.73
29) PPSPPSHTPPPS    0.695
30) GLGEWGGRGVCG    0.692
31) FLCILTNGCCYQ    0.765
32) PPPPPPLPHSPP    0.647
33) KKGRGEGTKKKR    0.602
34) VVIWWFSAVVSV    0.148
35) VWVSHPWYMAFL    0.618
36) EPAAGFAICRHH    0.67
37) SWTWLFGFRRGL    0.746
38) PRSPPPPPSYSP    0.703
39) PPSRFPAPPSCA    0.705
40) VDNTRKRSTNSV    0.694
41) GRVGGRSGGRGR    0.68

###

System: Saccharomyces cerevisiae;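 also: PSI is a weighted mean of sequencing reads over stability bins, variants kept only with over 10 reads, mCherry proximal and sfGFP distal, peptide attached via GGGS linker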
Assay: protein stability index of tFT-peptide fusion (C-terminal peptide) (PSI (0-1 scale)); higher = more stable (slower turnover)
Details: genetic background: wild type; temperature: 30 C
Some sequences, each annotated with its measured protein stability index.
metric: protein stability index

1) PPSAPPSPPHPP    0.612
2) PGLSTGAVKLLY    0.692
3) ILILDTKPISKT    0.726
4) GVRATRMGGGPL    0.706
5) GGLGFVGGVRVQ    0.671
6) SRLPSPFPSPPL    0.737
7) LVVGNQFIRRSD    0.685
8) GRGRLLYWEKWL    0.66
9) ARVLVLMNGVCV    0.592
10) AFPPDVPPLTPL    0.72
11) EQFLRCEALGAW    0.661
12) TGWLRLLHAASG    0.656
13) GGGVWGVGRGIL    0.6
14) WGYAFVGVVRGA    0.661
15) LRRSPPNPLLKA    0.634
16) RDLSEGRSPLGI    0.661
17) LLLLNSFFISPP    0.742
18) FGSRYLGVVSGC    0.656
19) QLVSNNCSLVMC    0.532
20) SLSSVAYAIIIL    0.561
21) LFGLCLAGFCVP    0.625
22) NRCGGACGRQAG    0.711
23) GRWRIVSLEELQ    0.724
24) TLDGGESSVVAV    0.685
25) GTRAETQWSVGM    0.682
26) GVGLGRVWVKLG    0.708
27) DRSRLWSHPCPG    0.647
28) GDARLAIWSLVT    0.512
29) VSLPGTWSSLSA    0.655
30) VSSSSPSNFIPL    0.666
31) SSPLYSLLVLFQ    0.54
32) TSGLGYVDCPKL    0.709
33) ALPNPLLPPAPP    0.612
34) LPPLCLPPPAHP    0.733
35) SVLVHSFRSVNV    0.66
36) PPPPPSRPFSPP    0.502
37) LNSSVLRLRFFV    0.264
38) RADLLQRGGDRI    0.677
39) GLDEGCRGGEEV    0.673
40) GLAAGGAVMPPL    0.719
41) VVVGVGGCVYMG    0.702
42) PPPAPPGPRYRR    0.696
43) WRGGWAETGGRE    0.705
44) LLFPFSLHLSPP    0.765
45) SLRSLYLLARLS    0.194
46) SPPPLDSFPFIT    0.659
47) RERNNISVKGKL    0.679
48) LPRLPPPPHPCP    0.741
49) FRFLFSPSRPPF    0.633
50) WEEKLEGTPTGG    0.72
51) NKNGGDLCLGSS    0.652
52) LFFVCSGVVFSF    0.507
53) ATTQLPPPGGMC    0.695
54) FWSARAVVWWCW    0.477
55) PTLSSRPPPYPR    0.642
56) GLPPLAMPALSI    0.72
57) RGARGIGVRLRV    0.651
58) NCFIPPARVFPS    0.686
59) RGEVWVEVALGV    0.642
60) DTPLIYSLKSEC    0.751
61) PLPPPFPGSALL    0.727
62) GVDKQSGTRNIK    0.704
63) KEQKNNRKVTKK    0.715
64) RSPPPFLSIFPL    0.745
65) RMGQQISSVRLF    0.679
66) PSTRPQYLFLPP    0.635
67) HPSPLHLPSPPP    0.675
68) SFTVFVVLLFPP    0.323
69) RKDNRRIMIKKR    0.648
70) PPLPSPPAPPAP    0.655
71) KVMTEARTPALS    0.702
72) IKACGLRSFIKS    0.69
73) SGGCVGLAVAGG    0.702
74) GGVVACGLRVAS    0.62
75) GIGKADSKRERS    0.652
76) APSEPVIYLPRV    0.746
77) YTPVKDNDVKVY    0.722
78) FLSAGLSILAAP    0.683
79) KMILVGMKKSVV    0.65
80) DKKKKTKINNKK    0.698
81) SVLVCSAIVIRK    0.6
82) AGAGGGQGKGRE    0.639
